B1: library; numbered along this chain (parent)
chain: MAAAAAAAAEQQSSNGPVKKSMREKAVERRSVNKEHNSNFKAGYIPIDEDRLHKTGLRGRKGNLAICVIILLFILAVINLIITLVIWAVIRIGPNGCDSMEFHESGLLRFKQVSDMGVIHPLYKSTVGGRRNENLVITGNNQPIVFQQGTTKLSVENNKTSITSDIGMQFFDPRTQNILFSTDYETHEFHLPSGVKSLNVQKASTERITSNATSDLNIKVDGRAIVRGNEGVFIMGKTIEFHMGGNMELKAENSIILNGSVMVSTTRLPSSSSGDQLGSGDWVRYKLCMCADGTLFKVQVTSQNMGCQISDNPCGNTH

- Variants of: B1
- assay: SGCB cell-surface expression functional score (HA stain, bin4 vs bin1, normalised to synonymous) (log10 ratio); higher = more cell-surface SGCB (functional)
observable: SGCB cell-surface expression functional score (log10)
No unit in the answer, only the number.

I have this variant here, `Q112F` , and I need its recorded SGCB cell-surface expression functional score (log10).
-0.97

// query: `T126L`
-0.13

// query: `Q176M`
-0.21

// query: `A251R`
-1.16

// query: `V85T`
-0.05

// query: `E230I`
0.14

// query: `T55Q`
-0.62

// query: `M247R`
-0.83

// query: `G244N`
0.77

Values compiled from the supplement of paper PMC10266784.
